Source listed as ChEMBL document CHEMBL3596143.

Target: Monoglyceride lipase (Homo sapiens) (UniProt Q99685)
Sequence (Q99685 whole entry): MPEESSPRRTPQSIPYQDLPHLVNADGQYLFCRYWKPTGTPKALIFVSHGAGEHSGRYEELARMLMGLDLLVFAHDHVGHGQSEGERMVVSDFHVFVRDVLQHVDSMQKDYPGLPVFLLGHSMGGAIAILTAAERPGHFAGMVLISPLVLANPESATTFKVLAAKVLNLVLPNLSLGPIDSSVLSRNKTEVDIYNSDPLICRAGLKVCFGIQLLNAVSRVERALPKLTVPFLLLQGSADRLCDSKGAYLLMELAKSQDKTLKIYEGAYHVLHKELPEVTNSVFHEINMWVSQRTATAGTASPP
Assay: Inhibition of MAGL (unknown origin) at […] after 10 mins relative to control
Rule: inhibition under 50% gives Not met, otherwise Met.

Past entries and their recorded results:
{"columns": ["molecule smiles", "cat"],
 "data": [
  ["CC1(C)CC[C@]2(C(=O)O)CC[C@]3(C)C(=CC[C@@H]4[C@@]5(C)CC[C@H](O)C(C)(C)[C@@H]5CC[C@]43C)[C@@H]2C1", "Not met"],
  ["O=c1c(-c2ccc(O)cc2)coc2c([C@@H]3O[C@H](CO)[C@@H](O)[C@H](O)[C@H]3O)c(O)ccc12", "Met"],
  ["Cc1coc2c1C(=O)C(=O)c1c-2ccc2c(C)cccc12", "Met"],
  ["Cc1coc2c1C(=O)C(=O)c1c-2ccc2c1CCCC2(C)C", "Met"]
]}

Could you verify whether the entry `CC1(C)OC(=O)C=C[C@]2(C)[C@H]3CC[C@@]4(C)[C@H](c5ccoc5)OC(=O)[C@H]5O[C@]54[C@]3(C)C(=O)C[C@@H]12` shows inhibition of no less than 50%? Not met
